Data provenance is patent US20240067665A1.

Tested on: NIH-3T3
experiment: Cell uptake assay, NIH-3T3 cells
Type: cell-based, mouse
recorded_conditions: 100 uM, 4 hours
Catalogue of Cell uptake, Mean, NIH-3T3 readings, one per entry.
Unit ng/10^6 cell implied. Number only.

N[C@@H](Cc1ccc(OCB(O)O)c(F)c1)C(=O)O [compound 10] | 204
NC(Cc1ccc(OCB(O)O)cc1)C(=O)O (stereo not drawn) [compound 4] | 58.6
N[C@@H](Cc1ccc(OCCB(O)O)cc1)C(=O)O [compound 3] | 138
N[C@@H](Cc1cccc(OCB(O)O)c1)C(=O)O [compound 1] | 194
N[C@@H](Cc1cc(F)cc(OCB(O)O)c1)C(=O)O [compound 13] | 222

Given the entry N[C@@H](Cc1cccc(C2(B(O)O)CC2)c1)C(=O)O [compound 14] , report its measured Cell uptake, Mean, NIH-3T3. 444
